The origin of these recorded values is ChEMBL document CHEMBL5113380.

target: UniProt P42262
Sequence (P42262 whole entry): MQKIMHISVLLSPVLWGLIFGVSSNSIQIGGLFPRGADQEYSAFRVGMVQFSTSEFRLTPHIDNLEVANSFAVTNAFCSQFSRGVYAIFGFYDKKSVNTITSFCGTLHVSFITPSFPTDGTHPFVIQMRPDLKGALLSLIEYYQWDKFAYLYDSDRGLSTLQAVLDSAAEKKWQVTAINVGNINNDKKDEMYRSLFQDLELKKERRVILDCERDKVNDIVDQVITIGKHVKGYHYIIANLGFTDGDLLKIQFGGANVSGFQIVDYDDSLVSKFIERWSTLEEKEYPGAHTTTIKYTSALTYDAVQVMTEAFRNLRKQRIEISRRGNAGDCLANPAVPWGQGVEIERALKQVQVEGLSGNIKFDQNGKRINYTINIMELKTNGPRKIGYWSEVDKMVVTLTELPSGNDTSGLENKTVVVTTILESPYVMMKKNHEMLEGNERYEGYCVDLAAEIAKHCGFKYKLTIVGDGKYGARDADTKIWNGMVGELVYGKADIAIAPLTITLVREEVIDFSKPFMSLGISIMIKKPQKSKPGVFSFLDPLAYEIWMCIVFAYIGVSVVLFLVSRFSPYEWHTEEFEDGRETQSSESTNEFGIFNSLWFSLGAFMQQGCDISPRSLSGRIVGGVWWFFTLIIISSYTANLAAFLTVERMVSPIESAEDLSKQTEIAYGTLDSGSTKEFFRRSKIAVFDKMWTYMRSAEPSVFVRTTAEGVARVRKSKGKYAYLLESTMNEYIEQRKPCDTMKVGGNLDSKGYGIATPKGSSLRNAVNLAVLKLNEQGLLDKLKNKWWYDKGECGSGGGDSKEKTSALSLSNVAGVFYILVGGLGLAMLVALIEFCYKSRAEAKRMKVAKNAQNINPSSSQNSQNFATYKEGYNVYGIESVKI
RECORDED METRIC: Ki (µM)
Write the answer as a number in µM, unit excluded.

Field: example entries. Status: answers known.
• N[C@@H](CCc1ccc2[nH]c(=O)c(=O)[nH]c2c1)C(=O)O = 21.3
• O=C(Nn1c(=O)c(=O)[nH]c2cc(C#CCO)ccc21)c1ccccc1 = 37.4

Name the recorded Ki of `O=C(Nn1c(=O)c(=O)[nH]c2cc(C#Cc3ccccc3)ccc21)c1ccccc1` , assay system UniProt P42262.
23.6

Print UniProt P42262 Ki for `O=C(Nn1c(=O)c(=O)[nH]c2cc(C(F)(F)F)c(F)cc21)c1ccccc1O` .
4.12

====

experiment: Inhibition of ALR1 (unknown origin) relative to control; set-up: concentration or dose not given beside the values; conditions: Homo sapiens; concentration not given here
RECORDED METRIC: inhibition (%)
Just the number please, in %, no unit attached.

Use these answered entries as a reference point.
* O=c1c(/C=C/c2ccc(O)cc2)nc2ccc(F)cc2n1-c1cnn(O)c1 | 34.3
* O=C(O)Cn1c(=O)c(CCc2ccccc2)nc2ccccc21 | 22
* O=c1c(/C=C/c2ccc(O)c(O)c2)nc2ccccc2n1-c1cnn(O)c1 | 30.5
* O=C(O)Cn1c(=O)c(/C=C/c2ccc(O)c(O)c2)nc2ccc(O)cc21 | 42.1
* O=C(O)Cn1c(=O)c(Oc2ccc(Br)cc2)nc2ccc(F)cc21 | 30.7

State its inhibition for this compound: `COc1cc(/C=C/c2nc3ccccc3n(CC(=O)O)c2=O)ccc1O`
32.6

Give the measured inhibition for `O=C(O)Cn1c(=O)c(-c2ccc(O)cc2O)nc2ccc(F)cc21`
46.2

Determine its reported inhibition: `O=C(O)Cn1c(=O)c(Oc2ccc(Br)cc2F)nc2ccc(F)cc21`
58.7

Indicate its recorded inhibition; the compound in question is `O=C(O)Cn1c(=O)c(Oc2ccc(Br)cc2)nc2cc(Br)ccc21`
25.6

Look up and report measured inhibition for this entry: `O=C(O)Cn1c(=O)c(Oc2cc(O)cc(O)c2)nc2ccc(Cl)cc21`
38.2

State its inhibition: `COc1ccc2nc(/C=C/c3ccc(O)cc3)c(=O)n(CC(=O)O)c2c1`
37.6

Give the reported inhibition for this compound. `O=C(O)Cn1c(=O)c(Oc2ccc(O)cc2)nc2cc(F)ccc21`
11.8

====

assay: Antiproliferative activity against human U-87 MG cells; type: functional, cell-based, U-87MG ATCC
RECORDED METRIC: IC50 (nM)
I only need the number, in nM, no unit after it.

Specify measured IC50 for `COc1cc2c(Oc3ccc(NC(=O)c4nc5ccccc5n(C5CCCCC5)c4=O)cc3F)ccnc2cc1OCCCN1CCOCC1` .
810

====

experiment: Cytotoxicity against African green monkey Vero cells; format: toxicity, cell-based; settings: chlorocebus sabaeus
RECORDED METRIC: CC50

Provide CC50 value for the following molecule: `O=C1CN(CCCN2CCCCC2)c2ccc([N+](=O)[O-])cc2N1`
> 300 µM

====

target: Glutamate receptor ionotropic AMPA (Homo sapiens, UniProt P42261+P42262+P42263+P48058); assay: Displacement of [3H]kainic acid from AMPA receptor (unknown origin); type: protein-complex assay
Reported pIC50 values are given for each entry in this list.
The meaning of pIC50 here: minus log10 of the concentration in molar units.

• O=C(O)c1nc2c(=O)[nH]c3cc(Cl)cc(-n4cnnc4)c3n2n1 = 4.43
• O=Cc1ccn(-c2cc3c(cc2Cl)nc(O)c2nc(C(=O)O)nn23)c1 = 5.05
• O=C(O)c1cc2c3cc(Cl)c(Cl)cc3[nH]c(=O)n2n1 = 4.39
• O=C(O)c1nc2c(=O)[nH]c3cc(Cl)c(-n4cnnc4)cc3n2n1 [TQX-173] = 4.94
• O=c1[nH]c2cc([N+](=O)[O-])c([N+](=O)[O-])cc2[nH]c1=O [DNQX] = 5.66
• O=C(O)c1nc2c(O)nc3cc(Cl)c(-n4cccc4)cc3n2n1 = 4.44

Annotate the compound `N[C@@H](CCc1ccc2[nH]c(=O)c(=O)[nH]c2c1)C(=O)O` with its measured pIC50.
3.90

Give the measured pIC50 for `Cc1cc2[nH]c(=O)c(=O)[nH]c2cc1C=O`
4.27

Retrieve pIC50 measured for `Nc1cc(Cl)cc2[nH]c(=O)c3nc(C(=O)O)nn3c12` and print it.
4.47

====

The compounds listed here are annotated with their Ki.
assay: Displacement of [3H]glycine from AMPA receptor (unknown origin); assay type: protein-complex assay, Homo sapiens

Some entries whose results are on file:
* O=Cc1ccn(-c2cc3c(cc2Cl)nc(O)c2nc(C(=O)O)nn23)c1 | 28 µM
* O=c1[nH]c2cc(-n3ccnc3)c([N+](=O)[O-])cc2[nH]c1=O [YM-90K] | 37 µM
* O=C(O)c1cc2c3cc(Cl)c(Cl)cc3[nH]c(=O)n2n1 | 0.16 µM
* O=C(O)c1nc2c(=O)[nH]c3cc(Cl)c(Cl)cc3n2n1 | 0.074 µM
* Nc1cc(Cl)cc2[nH]c(=O)c3nc(C(=O)O)nn3c12 | 0.16 µM

Note down Ki recorded for `O=C(O)c1nc2c(=O)[nH]c3cc(Cl)c(-n4cnnc4)cc3n2n1`
33.5 µM

State its Ki: `O=C(O)c1nc2c(=O)[nH]c3cc(Cl)cc(-n4cnnc4)c3n2n1`
2.3 µM

Fill in reported Ki for this entry: `O=C(O)c1nc2c(O)nc3cc(Cl)c(-n4cccc4)cc3n2n1`
0.86 µM

Provide measured Ki value, entry: `O=[N+]([O-])c1cc2nc(O)c(O)nc2nc1-n1ccnc1`
10 µM

====

target: Glutamate receptor ionotropic AMPA (Homo sapiens, UniProt P42261+P42262+P42263+P48058); experiment: Displacement of [3H]AMPA from AMPA receptor (unknown origin); format: protein-complex assay
// map IC50 onto a label; ranges band A = under 1 µM, band B = from 1 µM up to 7 µM, band C = 7 µM and over

Which of the defined bands does the recorded IC50 of O=c1[nH]c2cc([N+](=O)[O-])c([N+](=O)[O-])cc2[nH]c1=O [DNQX] sit within?
band A

// return the class label for NC(CNC(=O)C(=O)O)C(=O)O (stereo not drawn)
band B

For CCC(C)N1CCc2c(Br)cc3nc(O)c(O)nc3c2C1 (stereo not drawn) , which IC50 bin applies?
band B

====

experiment: Binding affinity to KA receptor (unknown origin); set-up: species or system Homo sapiens
pIC50: −log10 of the molar value.
Examples of compounds with documented pIC50 follow.

Consider the worked cases shown below.
* O=C(O)Cc1cccc(-c2ccc3[nH]c(=O)c(=O)[nH]c3c2)c1 | < 4.00
* O=c1[nH]c2ccc(-c3cccc(P(=O)(O)O)c3)cc2[nH]c1=O | < 4.00
* O=c1[nH]c2ccc(CCP(=O)(O)O)cc2[nH]c1=O | < 4.00
* O=C(O)c1ccccc1/C=C/c1ccc2[nH]c(=O)c(=O)[nH]c2c1 | 4.62
* Cc1ccc(C(=O)O)cc1-c1ccc2[nH]c(=O)c(=O)[nH]c2c1 | < 4.00

# input for lookup
Give pIC50 for `O=C(O)CNS(=O)(=O)c1ccc2nc(O)c(O)nc2c1`
< 4.00

====

molecular target: Human immunodeficiency virus type 1 reverse transcriptase (Human immunodeficiency virus 1) (UniProt Q72547); test: Inhibition of HIV1 reverse transcriptase at 10 uM relative to control
Rule: inhibition of 20% or more gives criterion met; anything lower gives criterion not met.

* CC(C)Cc1nc2ccccc2[nH]c1=O | criterion not met
* CCC(=O)N1CC(=O)Nc2ccccc21 | criterion met
* CC(C)COC(=O)N1c2ccccc2NC(=O)[C@H]1CC(C)C | criterion met
* CC(=O)N1CC(=O)Nc2ccccc21 | criterion not met

# bool: inhibition of `CC(C)COC(=O)N1c2ccccc2NC(=O)[C@H]1C` >= 20%
criterion met

====

molecular target: Glutamate receptor ionotropic AMPA (Homo sapiens, UniProt P42261+P42262+P42263+P48058); test: Displacement of […] from AMPA receptor (unknown origin); type: protein-complex assay
RECORDED METRIC: pKi
// field semantics: pKi = negative decimal log of concentration (mol/L)

Retrieve pKi measured for `N[C@@H](CCc1ccc2[nH]c(=O)c(=O)[nH]c2c1)C(=O)O` and print it.
4.11

====

molecular target: Glutamate receptor ionotropic AMPA (Homo sapiens, UniProt P42261+P42262+P42263+P48058); assay: Antagonist activity at AMPA receptor (unknown origin); assay type: protein-complex assay
RECORDED METRIC: pEC50
The value called pEC50 is obtained by taking minus log10 of the concentration in mol/L.

- Cc1cc2[nH]c(=O)c(=O)n(C[C@H](N)C(=O)O)c2cc1C: 3.54

From here, focus on the item given below.
Return reported pEC50. Input compound: `Cc1cc2[nH]c(=O)c(=O)n(C[C@@H](N)C(=O)O)c2cc1C`
3.52
